Origin of values: patent US20070020327A1

SYSTEM NAME: HLA-A*0203 (human)
ASSAY: inhibition of 125I-labelled standard peptide binding to purified HLA-A*0203, gel filtration
RECORDED METRIC: binding affinity ratio (IC50 of standard peptide / IC50 of test peptide)
Just the number.

CALPEKPA (modifications not checked) [CALPEKPA (Kallikrein, position 234)] has a reported binding affinity ratio (IC50 of standard peptide / IC50 of test peptide) of -0.0001

CLKKNSQV (modifications not checked) [CLKKNSQV (Kallikrein, position 66)] has a reported binding affinity ratio (IC50 of standard peptide / IC50 of test peptide) of 0.0006

CTGAVPLI (modifications not checked) [CTGAVPLI (Kallikrein, position 14)] has a reported binding affinity ratio (IC50 of standard peptide / IC50 of test peptide) of 0.0001

CVSLHLLSNDM (modifications not checked) [… (Kallikrein, position 173)] has a reported binding affinity ratio (IC50 of standard peptide / IC50 of test peptide) of 0.002
